test system: 485368-065-R4-J2-PDC spheroids with HUVEC/MSC, viability; test: Anticancer human tumor 485368-065-R4-J2-PDC patient-derived pancreatic carcinoma cell line growth inhibition [CLK]; settings: second compound 0.0316 µM; first compound 3.16 µM; stronger effect = lower value;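 also: spheroids exposed to compounds for seven days; 100% = DMSO vehicle control wells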
Attribute Measured: viability, T/C

Lookup: // viability, T/C lookup, key: COC1C=CCC(C)C(C)S(=O)(=O)NC(=O)c2ccc3c(c2)N(CC2CCC21)CC1(CCCc2cc(Cl)ccc21)CO3 (configuration not stated) + CNC(=O)c1ccc(Nc2nc(OC3CCCC3)c3c(-c4ccc5nc(C)oc5c4)c[nH]c3n2)c(OC)c1
Found: 103%

Lookup: Similarly, Nc1ccccc1NC(=O)c1ccc(CNC(=O)OCc2cccnc2)cc1 + CN1CCN(c2cc(C(=O)Nc3cc4cc(-c5cnn(C)c5)ccc4cn3)ccn2)CC1 ?
Found: 91.6%

Lookup: // query: CCCS(=O)(=O)Nc1ccc(F)c(C(=O)c2c[nH]c3ncc(-c4ccc(Cl)cc4)cc23)c1F + CNC(=O)c1ccc(Nc2nc(OC3CCCC3)c3c(-c4ccc5nc(C)oc5c4)c[nH]c3n2)c(OC)c1
Found: 91.6%

Lookup: Same again, this time with CC1(C)CCC(CN2CCN(c3ccc(C(=O)NS(=O)(=O)c4ccc(NCC5CCOCC5)c([N+](=O)[O-])c4)c(Oc4cnc5[nH]ccc5c4)c3)CC2)=C(c2ccc(Cl)cc2)C1 + CNC(=O)c1ccc(Nc2nc(OC3CCCC3)c3c(-c4ccc5nc(C)oc5c4)c[nH]c3n2)c(OC)c1
Found: 117%

Lookup: Next compound up: C=CC(=O)N1CCN(c2nc(=O)n(-c3c(C)ccnc3C(C)C)c3nc(-c4c(O)cccc4F)c(F)cc23)C(C)C1 (configuration not stated) + CNC(=O)c1ccc(Nc2nc(OC3CCCC3)c3c(-c4ccc5nc(C)oc5c4)c[nH]c3n2)c(OC)c1
Found: 93.3%

Lookup: Try this compound too: CCCS(=O)(=O)Nc1ccc(F)c(C(=O)c2c[nH]c3ncc(-c4ccc(Cl)cc4)cc23)c1F + CN1CCN(c2cc(C(=O)Nc3cc4cc(-c5cnn(C)c5)ccc4cn3)ccn2)CC1
Found: 93.8%

Lookup: Likewise for O=c1[nH]cc(F)c(=O)[nH]1 + CN1CCN(c2cc(C(=O)Nc3cc4cc(-c5cnn(C)c5)ccc4cn3)ccn2)CC1 ?
Found: 99.6%
